Values from ChEMBL document CHEMBL2163325

ASSAY INFO: Half life in human liver microsomes at 2 uM
Type: ADME, Microsome
ATTRIBUTE MEASURED: half-life at 2 µM

Query: Sample C[C@H]1CN(c2cc(N(CCO)Cc3cccc4ccccc34)[nH]c(=O)n2)CCO1 — what was its half-life at 2 µM?
Reply: > 2.88 h

====

ASSAY INFO: Lipophilicity, log D of the compound at pH 7.4 by HPLC analysis
Type: physicochemical
CONDITION CONTEXT: buffer
Binary label based on logD with cut-off 2: below gives fulfilled, not below gives not fulfilled.

Query: # strict comparison: is reported logD < 2? input = C[C@@H]1CN(c2cc(N(CCO)Cc3cccc4ccccc34)[nH]c(=O)n2)CCO1
Reply: fulfilled

Query: I wonder whether CN(C)CCN(Cc1cccc2ccccc12)c1cc(N2CCOCC2)nc(=O)[nH]1 has logD below 2. Can you tell?
Reply: fulfilled

Query: Just wondering, is logD of C[C@H]1CN(c2cc(N(CCO)Cc3cccc4ccccc34)[nH]c(=O)n2)CCO1 below 2?
Reply: fulfilled

Query: Dear colleague, could you confirm whether logD of O=c1nc(N2CCOCC2)cc(N(CCCCO)Cc2cccc3ccccc23)[nH]1 falls below 2? Thanks.
Reply: fulfilled

Query: Dear reviewer, please state whether O=c1nc(N2CCOCC2)cc(N(CCCO)Cc2cccc3ccccc23)[nH]1 has logD strictly beneath 2.
Reply: fulfilled

Query: Find out if reported logD for Cc1cc(-c2cc(=O)[nH]c(NCc3cccc4ccccc34)n2)ccn1 is less than 2
Reply: not fulfilled

Query: Please check: logD for COC1CN(c2cc(=O)[nH]c(NCc3cccc4ccccc34)n2)C1 , strictly under 2 or not?
Reply: not fulfilled

Query: Quick check: does CN(C)CCCN(Cc1cccc2ccccc12)c1cc(N2CCOCC2)nc(=O)[nH]1 have logD under 2?
Reply: fulfilled

Query: A record lists CCC(O)CN(Cc1cccc2ccccc12)c1cc(N2CCOCC2)nc(=O)[nH]1 (centres undefined) . Is its logD below 2?
Reply: not fulfilled

====

Assign logD to each entry below.
ASSAY INFO: Lipophilicity, log D of the compound at pH 7.4 by HPLC analysis
Format: physicochemical
CONDITION CONTEXT: buffer
Enter a number only.

Query: Need logD, item O=c1cc(-c2cn[nH]c2)nc(NCc2cccc3ccccc23)[nH]1
Reply: 1.9

Query: What does the record list as logD for O=c1nc(N2CCOCC2)cc(N(Cc2cccc3ccccc23)CC(O)C(F)(F)F)[nH]1 (stereo not given) ?
Reply: 3

Query: Item CCN(Cc1cccc2ccccc12)c1cc(N2CCOCC2)nc(=O)[nH]1 has what recorded logD?
Reply: 2.5

Query: Quick one: logD for CC1CN(c2cc(=O)[nH]c(NCc3cccc4ccccc34)n2)CCO1 (stereo not given) ?
Reply: 2.9

Query: Sample O=c1nc(N2CCOCC2)cc(N(CCO)Cc2cccc3ccccc23)[nH]1 — what was its logD?
Reply: 1.55

====

ASSAY INFO: Fraction unbound in dog plasma after 18 hrs by equilibrium dialysis method
Assay type: ADME, cell-free, Canis lupus familiaris
ATTRIBUTE MEASURED: fraction unbound at 18 h
The response must contain the number and no unit.

Query: # get_value(readout='fraction unbound at 18 h', item= C[C@H]1CN(c2cc(N(CCO)Cc3cccc4ccccc34)[nH]c(=O)n2)CCO1 )
Reply: 0.3

====

ASSAY INFO: Lipophilicity, log D of the compound at pH 7.4 by HPLC analysis
Type: physicochemical
CONDITION CONTEXT: buffer
ATTRIBUTE MEASURED: logD
Provide a numeric answer; units are not to be included.

Query: Consider the molecule shown here: CC(C)(CO)CN(Cc1cccc2ccccc12)c1cc(N2CCOCC2)nc(=O)[nH]1 What is its recorded logD?
Reply: 3.15

Query: For the molecule shown here, CC(O)CN(Cc1cccc2ccccc12)c1cc(N2CCOCC2)nc(=O)[nH]1 (stereo not given) , give the reported logD.
Reply: 2

Query: What does the data say about its logD? Entry: O=c1nc(N2CCOCC2)cc(N(Cc2cccc3ccccc23)C2CC2)[nH]1
Reply: 2.6

Query: Requested read-out: logD. Entry: CN(Cc1cccc2ccccc12)c1cc(N2CCOCC2)nc(=O)[nH]1
Reply: 2.37

Query: Find the recorded logD belonging to O=c1cc(N2CCC(O)CC2)nc(NCc2cccc3ccccc23)[nH]1 and report it.
Reply: 1.6

====

TARGET OR TEST SYSTEM: Phosphatidylinositol 4,5-bisphosphate 3-kinase catalytic subunit alpha isoform (Homo sapiens, UniProt P42336)
Sequence (P42336 whole entry, canonical isoform): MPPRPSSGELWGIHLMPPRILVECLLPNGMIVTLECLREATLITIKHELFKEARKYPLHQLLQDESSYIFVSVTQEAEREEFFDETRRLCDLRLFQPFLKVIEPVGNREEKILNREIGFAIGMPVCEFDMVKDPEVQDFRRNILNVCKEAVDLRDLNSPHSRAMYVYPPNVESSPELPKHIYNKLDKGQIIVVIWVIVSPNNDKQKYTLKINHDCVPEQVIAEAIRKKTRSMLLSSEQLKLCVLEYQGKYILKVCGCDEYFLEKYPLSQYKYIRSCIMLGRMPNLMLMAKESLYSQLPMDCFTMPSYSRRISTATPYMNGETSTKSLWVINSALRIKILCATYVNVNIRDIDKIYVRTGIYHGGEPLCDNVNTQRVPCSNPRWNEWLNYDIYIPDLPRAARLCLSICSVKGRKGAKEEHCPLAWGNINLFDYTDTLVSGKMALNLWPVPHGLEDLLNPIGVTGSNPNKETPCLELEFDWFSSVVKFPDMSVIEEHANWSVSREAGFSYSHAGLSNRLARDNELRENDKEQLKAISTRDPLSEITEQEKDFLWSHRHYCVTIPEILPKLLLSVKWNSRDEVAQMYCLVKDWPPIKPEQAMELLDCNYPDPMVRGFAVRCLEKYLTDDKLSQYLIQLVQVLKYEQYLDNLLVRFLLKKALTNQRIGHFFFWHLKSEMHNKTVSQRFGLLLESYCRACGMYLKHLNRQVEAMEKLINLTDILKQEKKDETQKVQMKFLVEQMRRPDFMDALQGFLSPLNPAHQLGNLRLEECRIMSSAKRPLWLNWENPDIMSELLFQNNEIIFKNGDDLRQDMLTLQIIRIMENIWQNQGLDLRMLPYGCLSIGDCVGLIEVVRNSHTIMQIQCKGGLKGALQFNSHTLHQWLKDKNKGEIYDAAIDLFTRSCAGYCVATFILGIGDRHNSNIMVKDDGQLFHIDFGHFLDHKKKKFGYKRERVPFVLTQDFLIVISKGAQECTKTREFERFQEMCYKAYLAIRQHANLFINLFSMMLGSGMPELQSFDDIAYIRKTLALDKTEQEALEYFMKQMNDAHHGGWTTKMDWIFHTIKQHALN
ASSAY INFO: Inhibition of human recombinant His6-tagged PI3K p110alpha expressed in baculovirus infected cells using DiC8-PI(4,5)P2 as substrate after 20 mins by AlphaScreen assay
For each record, write down the corresponding pIC50.
Just the number, please; pIC50 means minus log10 of the concentration in mol/L.

Query: What does the data say about its pIC50? Entry: CCN(Cc1cccc2ccccc12)c1cc(N2CCOCC2)nc(=O)[nH]1
Reply: 4.08

Query: What value of measured pIC50 is listed for O=c1nc(N2CCOCC2)cc(N(CCO)Cc2cccc3ccccc23)[nH]1 ?
Reply: 4.51

Query: Please look up its pIC50: O=c1nc(N2CCOCC2)cc(N(CCCCO)Cc2cccc3ccccc23)[nH]1
Reply: 4.13

Query: Which pIC50 value belongs to CC1CN(c2cc(=O)[nH]c(NCc3cccc4ccccc34)n2)CCO1 (centres undefined) ?
Reply: 5.66

Query: GET /values?readout=pIC50&item= O=c1nc(N2CCOCC2)cc(N(Cc2cccc3ccccc23)C2CC2)[nH]1
Reply: 4.12

Query: # input molecule: C[C@@H]1CN(c2cc(N(CCO)Cc3cccc4ccccc34)[nH]c(=O)n2)CCO1 ; wanted: its pIC50
Reply: 3.46

Query: GET /values?readout=pIC50&item= O=c1cc(N2CCC(O)CC2)nc(NCc2cccc3ccccc23)[nH]1
Reply: 3.80

Query: pIC50 lookup needed for O=c1nc(N2CCOCC2)cc(N(Cc2cccc3ccccc23)CC(O)C(F)(F)F)[nH]1 (centres undefined) , thanks.
Reply: 4.24

Query: Sample CN(Cc1cccc2ccccc12)c1cc(N2CCOCC2)nc(=O)[nH]1 — what was its pIC50?
Reply: 3.67

Query: Look up pIC50: C[C@H]1CN(c2cc(N(CCO)Cc3cccc4ccccc34)[nH]c(=O)n2)CCO1
Reply: 4.57

Query: Look up pIC50 for this molecule: CC(C)(CO)CN(Cc1cccc2ccccc12)c1cc(N2CCOCC2)nc(=O)[nH]1
Reply: 3.69

Query: Given O=c1nc(N2CCOCC2)cc(N(CCCO)Cc2cccc3ccccc23)[nH]1 , state its recorded pIC50.
Reply: 4.29

Query: Any idea what its pIC50 is? The molecule is Cc1cc(-c2cc(=O)[nH]c(NCc3cccc4ccccc34)n2)ccn1
Reply: 6.08

Query: Tell me the measured pIC50 of CCC(O)CN(Cc1cccc2ccccc12)c1cc(N2CCOCC2)nc(=O)[nH]1 (centres undefined) , please.
Reply: 3.83

Query: // lookup pIC50 for COC1CN(c2cc(=O)[nH]c(NCc3cccc4ccccc34)n2)C1
Reply: 4.08

Query: Quick check: pIC50 of O=c1cc(-c2cn[nH]c2)nc(NCc2cccc3ccccc23)[nH]1 ?
Reply: 4.21

Query: State the recorded pIC50 for this entry: CC(O)CN(Cc1cccc2ccccc12)c1cc(N2CCOCC2)nc(=O)[nH]1 (centres undefined)
Reply: 3.95

====

Species: Homo sapiens
ASSAY INFO: Selectivity ratio of IC50 for human PI3K p110alpha to IC50 for human PI3K p110beta
Label yes when Ratio IC50 is at or above 100; anything below gets no.

Query: Textbook exercise: given the entry CC(O)CN(Cc1cccc2ccccc12)c1cc(N2CCOCC2)nc(=O)[nH]1 (centres undefined) , state whether its Ratio IC50 is greater than or equal to 100.
Reply: yes

Query: Answer whether Ratio IC50 of O=c1nc(N2CCOCC2)cc(N(CCO)Cc2cccc3ccccc23)[nH]1 is greater than or equal to 100.
Reply: yes

Query: Decide: is the reported value of Ratio IC50 for O=c1nc(N2CCOCC2)cc(N(Cc2cccc3ccccc23)C2CC2)[nH]1 equal to or greater than 100?
Reply: no

Query: Answer whether Ratio IC50 of O=c1nc(N2CCOCC2)cc(N(CCCO)Cc2cccc3ccccc23)[nH]1 is greater than or equal to 100.
Reply: yes

Query: Please indicate if the recorded Ratio IC50 for CN(Cc1cccc2ccccc12)c1cc(N2CCOCC2)nc(=O)[nH]1 meets or exceeds 100.
Reply: yes

Query: Assess whether reported Ratio IC50 for C[C@H]1CN(c2cc(N(CCO)Cc3cccc4ccccc34)[nH]c(=O)n2)CCO1 sits at 100 or higher.
Reply: yes

Query: Hi team, for CCC(O)CN(Cc1cccc2ccccc12)c1cc(N2CCOCC2)nc(=O)[nH]1 (centres undefined) , is the recorded Ratio IC50 at or above 100?
Reply: yes

Query: Threshold query (Ratio IC50 >= 100) on O=c1nc(N2CCOCC2)cc(N(Cc2cccc3ccccc23)CC(O)C(F)(F)F)[nH]1 (centres undefined)
Reply: no

Query: Evaluate O=c1nc(N2CCOCC2)cc(N(CCCCO)Cc2cccc3ccccc23)[nH]1 : Ratio IC50 at minimum 100?
Reply: yes

Query: Test whether the compound CCN(Cc1cccc2ccccc12)c1cc(N2CCOCC2)nc(=O)[nH]1 records Ratio IC50 of 100 or higher.
Reply: yes

Query: Reported Ratio IC50 at or above 100? CC(C)(CO)CN(Cc1cccc2ccccc12)c1cc(N2CCOCC2)nc(=O)[nH]1
Reply: yes

Query: Hi, just wondering whether CC1CN(c2cc(=O)[nH]c(NCc3cccc4ccccc34)n2)CCO1 (centres undefined) shows Ratio IC50 of 100 or higher.
Reply: no
